# System: P388 leukemia ip, CD2F1 mice, survival T/C
# Assay comment: NCI In Vivo Anticancer Drug Screen. Data for tumor model P388 Leukemia (intraperitoneal) in CD2F1 (CDF1) mice
# Condition details: endpoint: median survival time; dose: 50.0 mg/kg/injection; schedule: Q01DX009 (ip); vehicle: Klucel (hydroxypropylcellulose) (HPC); higher = longer survival
Inconclusive results and toxic doses are left out.

Compound: Cc1ccc(S(=O)(=O)N=N/C=C2/C=CC=CN2O)cc1
T/C: 119 % of control
//
Compound: O=C1CCC/C1=C1/SS/C(=C2/CCCC2=O)S1
T/C: 101 % of control
//
Compound: CCCCCCCCCCCC1C(C#N)C(=O)NC(=O)C1C#N (configuration not stated)
T/C: 103 % of control
//
Compound: O=C1C=C(O)CN1C(=O)c1ccc(Cl)cc1
T/C: 98 % of control
//
Compound: O=S(=O)(c1ccc(NC(=S)N2CCOCC2)cc1)N1CCCCC1
T/C: 100 % of control
//
Compound: Cc1ccc2c(c1)sc1nnc(Cl)n12
T/C: 100 % of control
//
Compound: O=C1CNC(=O)c2cc(Cl)ccc2N1
T/C: 103 % of control

###

# System: P388 leukemia ip, CD2F1 mice, survival T/C
# Assay comment: NCI In Vivo Anticancer Drug Screen. Data for tumor model P388 Leukemia (intraperitoneal) in CD2F1 (CDF1) mice
# Condition details: endpoint: median survival time; dose: 400.0 mg/kg/injection; schedule: Q01DX001 (ip); vehicle: saline; higher = longer survival
# Experimental: The antitumor activity of compounds was measured in mice bearing transplantable tumors. Survival or tumor size were measured and the results are expressed as the measurement made in the treated group (T) divided by the measurement made in the vehicle treated control group (C). The tumor model used in this assay is P388 Leukemia (intraperitoneal) in CD2F1 (CDF1) mice
Inconclusive results and toxic doses are left out.
Listed molecules paired with reported T/C

Molecule: COC(=N)C1=CC(C)(C)N(O)C1(C)C
T/C: 98 % of control
//
Molecule: CCC1OC(=O)C1[Si](C)(C)C (stereo not drawn)
T/C: 103 % of control
//
Molecule: CC(=O)C1CCC=CC1Sc1ccccc1 (stereo not drawn)
T/C: 98 % of control
//
Molecule: Cc1nc2nc3n(c(=O)c2nc1C)CCS3
T/C: 102 % of control
//
Molecule: CCOP(=O)(O)SP(=O)(O)OCC
T/C: 101 % of control
//
Molecule: CC1=Nc2ccc(Cl)cc2N=C(C)C1
T/C: 100 % of control
//
Molecule: COc1ccc(CS(=O)(=O)c2cnc(N/N=C/c3ccc([N+](=O)[O-])o3)nc2N)c(OC)c1
T/C: 92 % of control
//
Molecule: CS(=O)(=O)CCCCCCCCCCS(C)(=O)=O
T/C: 93 % of control

###

Listed compounds paired with reported T/C
# System: P388 leukemia ip, CD2F1 mice, survival T/C
# Assay comment: NCI In Vivo Anticancer Drug Screen. Data for tumor model P388 Leukemia (intraperitoneal) in CD2F1 (CDF1) mice
# Condition details: endpoint: median survival time; dose: 50.0 mg/kg/injection; schedule: Q01DX009 (ip); vehicle: water; higher = longer survival
Inconclusive results and toxic doses are left out.

Compound: COC(=O)C(C)C(O)C(C)N (stereo not given)
T/C: 106 % of control
//
Compound: C[CH2][Ge]1([CH2]C)[CH2]CC2(CCN(CCCN(C)C)C2)C[CH2]1
T/C: 123 % of control
//
Compound: O=C(N/N=C/c1cc(Cl)ccc1O)C(=O)N/N=C/c1cc(Cl)ccc1O
T/C: 92 % of control
//
Compound: S=c1[nH]ccs1
T/C: 95 % of control
//
Compound: Cc1ccc(C(=O)/C=C/c2ccccc2)cc1
T/C: 99 % of control

###

Listed compounds paired with reported T/C
# Tested on: P388 leukemia ip, CD2F1 mice, survival T/C
# Assay comment: NCI In Vivo Anticancer Drug Screen. Data for tumor model P388 Leukemia (intraperitoneal) in CD2F1 (CDF1) mice
# Condition details: endpoint: median survival time; dose: 200.0 mg/kg/injection; schedule: Q01DX009 (ip); vehicle: other; higher = longer survival
Toxic doses and inconclusive results are not listed.

Compound: COc1ccc(C(=O)OC2(C)CC(C)(C)N=[N+]2[O-])cc1 (stereo unspecified)
T/C: 113 % of control
--
Compound: CCOC(=O)NNS(=O)(=O)CCC(NC(=O)OCc1ccccc1)C(=O)OCc1ccccc1 (stereo unspecified)
T/C: 104 % of control
--
Compound: Oc1ccc(N=Cc2ccc3c(c2)OCO3)cc1
T/C: 111 % of control
--
Compound: CC(=O)N(O)CC(=O)OCc1ccccc1
T/C: 100 % of control
--
Compound: CC1(C)CCSC(/C=C/c2ccccc2)=N1
T/C: 115 % of control
--
Compound: Cc1ccc(N/N=C/C(=O)O)cc1
T/C: 116 % of control

###

# Test system: P388 leukemia ip, CD2F1 mice, survival T/C
# Assay comment: NCI In Vivo Anticancer Drug Screen. Data for tumor model P388 Leukemia (intraperitoneal) in CD2F1 (CDF1) mice
# Condition details: endpoint: median survival time; dose: 100.0 mg/kg/injection; schedule: Q04DX002 (ip); vehicle: saline; higher = longer survival
Toxic doses and inconclusive results are not listed.

Compound: CCC1(CC)C(=O)N(C)P(=O)(Oc2ccccc2)N(C)C1=O
T/C: 100 % of control
//
Compound: COc1ccc(C2=C(O)c3cc4ccccc4nc3S2(=O)=O)cc1
T/C: 100 % of control
//
Compound: CCC1([N+](=O)[O-])CN(C)CC2CCCCN2C1 (stereo not drawn)
T/C: 100 % of control
//
Compound: C=C1C(=O)OC2CC1C(OC(C)=O)C/C(C)=C/CC/C(C)=C\CCC2(C)O (stereo not drawn)
T/C: 103 % of control
//
Compound: Cc1cc(C=C2C(=O)c3ccccc3C2=O)cc(C)c1O
T/C: 97 % of control
//
Compound: CCc1cc(C2C(=O)c3ccccc3C2=O)cc(CC)c1O
T/C: 107 % of control
//
Compound: O=C(O)CNc1ncnc2c1CCc1ccccc1-2
T/C: 100 % of control
//
Compound: OCC(O)C(O)C(O)C(/C=N\Nc1ccccc1)=N/Nc1ccccc1 (stereo not drawn)
T/C: 100 % of control

###

# Test system: P388 leukemia ip, CD2F1 mice, survival T/C
# Assay comment: NCI In Vivo Anticancer Drug Screen. Data for tumor model P388 Leukemia (intraperitoneal) in CD2F1 (CDF1) mice
# Condition details: endpoint: median survival time; dose: 50.0 mg/kg/injection; schedule: Q01DX009 (ip); vehicle: saline with Tween-80
Inconclusive results and toxic doses are left out. How the source made its calls: active means survival T/C of 150% or more; inactive means T/C below 125% in these data.
Outcome codes: active, inactive

Compound: CC(Br)C(=O)c1ccc(OCc2ccccc2)cc1 (configuration not stated)
Cat: inactive
//
Compound: CCC(=O)Nc1cc(Cl)cc2[nH]c(C)nc12
Cat: inactive
//
Compound: CC(=O)C(CO)C(=O)Nc1ccccc1 (configuration not stated)
Cat: inactive
//
Compound: CN(C)c1ccc(N=Nc2ccc3ccc4cccc5ccc2c3c45)cc1
Cat: inactive
//
Compound: CC(=O)OC1CCC2(C)C(=CCC3C4CC(C5(O)C(=O)Nc6ccccc65)C(=O)C4(C)CCC32)C1 (configuration not stated)
Cat: inactive
//
Compound: C/C1=C(O[Si](C)(C)C)/C(O[Si](C)(C)C)=C(/C)CCCC1
Cat: inactive
//
Compound: CN(C)c1ncnc2c1cnn2C
Cat: inactive
//
Compound: CC(=O)OCc1ncccc1OC(C)=O
Cat: inactive
//
Compound: C=CCNC(=S)Nc1sc(C)c(C)c1C(=O)OCC
Cat: inactive
//
Compound: O=C(c1ccccc1)c1ccccc1NC(=O)C(F)(F)F
Cat: inactive
//
Compound: COC(=O)/C(C#N)=C/N(C)c1ccc([N+](=O)[O-])cc1
Cat: inactive
//
Compound: CSNC(C)=O
Cat: inactive
//
Compound: c1ccc(-c2cc3cc4ccccc4cn3c2)cc1
Cat: inactive
//
Compound: Nc1nc(N)c2nc(CNc3ccc(C(=O)NC(CC(=O)O)C(=O)O)cc3)cnc2n1 (configuration not stated)
Cat: inactive
//
Compound: CCOc1ccc2nc3cc(N=Nc4c(C)c(CN(CC)CC)cc(C)c4O)ccc3c(N)c2c1
Cat: inactive
//
Compound: COc1ccc2c(c1)CSC(c1ccccc1)=C2
Cat: inactive
//
Compound: CC1(C)C(C#N)C(=O)N(Cc2ccccc2)C(=O)C1C#N (configuration not stated)
Cat: inactive
//
Compound: Nc1ncnc2c1cnn2Cc1ccc(Cl)cc1
Cat: inactive
//
Compound: O=C1NC(=O)C(=Cc2cc3c(cc2Br)OCO3)C(=O)N1
Cat: inactive
//
Compound: COC1C(O)C(C)OC(OC2C(Oc3cccc4c(O)c5c(=O)oc6ccc(C)c7c(=O)oc(c34)c5c67)OC(C)C(O)C2O)C1O (configuration not stated)
Cat: active
//
Compound: CCN(CC)C(=O)c1c(Cl)c(Cl)c(Cl)c(Cl)c1C(=O)O
Cat: inactive
//
Compound: Cc1ccc(CSCc2c(CSCc3ccc(C)cc3)c(CSCc3ccc(C)cc3)c(CSCc3ccc(C)cc3)c(CSCc3ccc(C)cc3)c2CSCc2ccc(C)cc2)cc1
Cat: inactive
//
Compound: O=C(Nc1ccc(Cl)cc1)OCC12COCN1COC2
Cat: inactive
//
Compound: O=C(Nc1ccc(OCCCCCOc2ccccc2)cc1)C(F)(F)F
Cat: inactive
//
Compound: CCCCCCCCN1CCCN(/N=C/c2c3c(O)c4c(O)c(C)c5c(c4c2O)C(=O)C(C)(O/C=C/C(OC)C(C)C(OC(C)=O)C(C)C(O)C(C)C(O)C(C)/C=C/C=C(C)C(=O)N3)O5)CC1 (configuration not stated)
Cat: inactive
//
Compound: CCCCCCCCCCCC(=O)N(CCOC(=O)c1ccccc1)CCOC(=O)c1ccccc1
Cat: inactive
//
Compound: N#C/C(=C\c1cccs1)c1ccccc1
Cat: inactive
//
Compound: Cc1c(O)c2c(c(O)c1Cc1ccc(C#N)cc1)C(=O)c1ccccc1C2=O
Cat: inactive
//
Compound: O=C1c2ccccc2Cc2c(NCc3ccccc3)ncnc2N1Cc1ccccc1
Cat: inactive
//
Compound: [O-][n+]1ccccc1C(O)CSc1ccccc1 (configuration not stated)
Cat: inactive
//
Compound: O=C(/C=C\N(c1ccccc1)c1ccccc1)c1ccccc1
Cat: inactive
//
Compound: O=C(NN=C1c2ccccc2-c2ccccc21)Nc1ccccc1
Cat: inactive
//
Compound: Nc1ccc(C(=O)O)c(C(=O)O)c1
Cat: inactive
//
Compound: Oc1ccccc1C=NCCN=Cc1ccccc1O
Cat: inactive
//
Compound: Clc1ccccc1N1CCN(CCCN2CCN(c3ccccc3Cl)CC2)CC1
Cat: inactive
//
Compound: BrCC1(CBr)OCCO1
Cat: inactive
//
Compound: C/C=C(\C(=O)O)S(=O)(=O)O.[Pb]
Cat: inactive
//
Compound: CN(C)c1ccc(/C=C/c2ccnc3ccc4ccccc4c23)cc1
Cat: inactive
//
Compound: COc1ccc(CC2CCCNC2C(=O)O)cc1 (configuration not stated)
Cat: inactive
//
Compound: Cc1nc(Cl)c(C#N)nc1C
Cat: inactive
//
Compound: C/C=C(\C#N)SCC
Cat: inactive
//
Compound: CCOC(=O)CCC(NC(=O)c1ccc(NS(=O)(=O)c2ccc(C)cc2)cc1)C(=O)OCC (configuration not stated)
Cat: inactive
//
Compound: O=C(NC(=NC(=Nc1ccccc1)c1ccccc1)c1ccccc1)c1ccccc1
Cat: inactive
//
Compound: O=C(O)c1cc(C(=O)CCCCC(=O)c2cc(C(=O)O)c(O)c3ccccc23)c2ccccc2c1O
Cat: inactive
//
Compound: CCCCNc1ccc(Nc2ccccc2)cc1
Cat: inactive
//
Compound: CC(C)(C)SC(=O)C1CCCCC1
Cat: inactive
//
Compound: CCCCCc1ccccc1O
Cat: inactive
